TEST NAME: protein stability index of a GFP-peptide fusion (yeast GPS) (PSI 1-4); higher = more stable; sorted into four equal gates, so the index is relative within each strain
TEST SETTINGS: ubr1∆
QUANTITY MEASURED: protein stability index
Give bare numbers.

>  <SEQUENCE ENTRY>
ERSDLLPYLSDTCAVSF [YJR042W/NUP85]

>  <QUANTITY MEASURED>
protein stability index

>  <RECORDED MEASUREMENT>
2.45

$$$$
>  <SEQUENCE ENTRY>
EEIKTVDPASAPNHSPE [RRP6]

>  <QUANTITY MEASURED>
protein stability index

>  <RECORDED MEASUREMENT>
3.19

$$$$

Provide each entry's protein stability index from the list below.
1. MSAKAEKKPASKAPAEK [HTB1]
2. AVPAATPANTNNSTSNA [SWI1]
3. WDLLPEPIRFLPNQFPL [SWI1]
4. NGEIKGENIDADNDGPR [SNF2]
5. EGWPKFQDTLYKKIPLL [QCR10]
6. KMLMNLHKEQWQSGLKM [RPN11]
7. EARAEAINLMGVKNNLL [RPO31]
8. INGEDPANNHQLGLQTV [SMX2]

2.89
2.96
2.31
3.08
1.43
2.13
1.66
3.08
